Quick record of Ki values for Peptidyl-prolyl cis-trans isomerase FKBP1A (Homo sapiens, UniProt P62942).
endpointLabel: Ki (µM)

In the examples that follow, each entry is paired with its recorded Ki.
COc1cc([C@@H](C(=O)N2CCCC[C@H]2C(=O)N[C@H](C(N)=O)c2ccccc2)C2CCCCC2)cc(OC)c1OC : 7.5
COc1cc([C@@H](C(=O)N2CCCC[C@H]2C(=O)NCCC(N)=O)C2CCCCC2)cc(OC)c1OC : 49.2
CC[C@@H](NC(=O)[C@@H]1CCCCN1C(=O)[C@H](c1cc(OC)c(OC)c(OC)c1)C1CCCCC1)C(N)=O : 6
COc1cc([C@@H](C(=O)N2CCCC[C@H]2C(=O)NC(C)(C)CC(N)=O)C2CCCCC2)cc(OC)c1OC : 3.2
COc1cc([C@@H](C(=O)N2CCCC[C@H]2C(=O)N[C@@H](CCc2ccccc2)C(N)=O)C2CCCCC2)cc(OC)c1OC : 30.1

[a] COc1cc([C@@H](C(=O)N2CCCC[C@H]2C(=O)N[C@H](C(N)=O)C2CCCCC2)C2CCCCC2)cc(OC)c1OC
[b] COc1cc([C@@H](C(=O)N2CCCC[C@H]2C(=O)NC2(C(N)=O)CCC2)C2CCCCC2)cc(OC)c1OC
Exam item: Param pair: a , b . Output: the one whose Ki is numerically greater. Response format: the label of the selected entry.
Marked response: b
(b: 23.4 µM, a: 12.8 µM)

###

experimentalSystem: Peptidyl-prolyl cis-trans isomerase FKBP5 (Homo sapiens)
testSummary: Binding affinity to FKBP51 FK506-binding domain (1 to 140 amino acids) (unknown origin) incubated for 30 mins using fluorescein-conjugated 2-(5-((2-(3-((R)-3-(3,4-dimethoxyphenyl)-1-((S)-1-(3,3-dimethyl-2-oxopentanoyl)piperidine-2-carbonyloxy)propyl)phenoxy)acetamido)methyl)-6-hydroxy-3-oxo-3H-xanthen-9-yl)benzoic acid by competitive fluorescence polarization assay
endpointLabel: Ki (µM)

In the examples that follow, each entry is paired with its recorded Ki.
COc1cc([C@@H](C(=O)N2CCCC[C@H]2C(=O)N[C@H](Cc2ccccc2)C(N)=O)C2CCCCC2)cc(OC)c1OC : 1.4
COc1cc([C@@H](C(=O)N2CCCC[C@H]2C(=O)NC(C)(C)C(N)=O)C2CCCCC2)cc(OC)c1OC : 2.2
CC[C@@H](C)[C@@H](NC(=O)[C@@H]1CCCCN1C(=O)[C@H](c1cc(OC)c(OC)c(OC)c1)C1CCCCC1)C(N)=O : 3.2
COc1cc([C@@H](C(=O)N2CCCC[C@H]2C(=O)NCC(N)=O)C2CCCCC2)cc(OC)c1OC : 36.7

[I] COc1cc([C@@H](C(=O)N2CCCC[C@H]2C(=O)NC2(C(=O)NCC(N)=O)CCCC2)C2CCCCC2)cc(OC)c1OC
[II] COc1cc([C@@H](C(=O)N2CCCC[C@H]2C(=O)N[C@@H](CCc2ccccc2)C(N)=O)C2CCCCC2)cc(OC)c1OC
Exam item: Param pair: I , II . Output: the one whose Ki is numerically greater. Response format: the label of the selected entry.
Marked response: II

[P] COc1cc([C@@H](C(=O)N2CCCC[C@H]2C(=O)N[C@H](CCC(N)=O)C(N)=O)C2CCCCC2)cc(OC)c1OC
[Q] COc1cc([C@@H](C(=O)N2CCCC[C@H]2C(=O)N[C@H](C)C(N)=O)C2CCCCC2)cc(OC)c1OC
[R] COc1cc([C@@H](C(=O)N2CCCC[C@H]2C(=O)N[C@@H](CCC(N)=O)C(N)=O)C2CCCCC2)cc(OC)c1OC
[S] CCNC(=O)[C@@H]1CCCCN1C(=O)[C@H](c1cc(OC)c(OC)c(OC)c1)C1CCCCC1
[T] COc1cc([C@@H](C(=O)N2CCCC[C@H]2C(=O)NC2(C(N)=O)CCCCC2)C2CCCCC2)cc(OC)c1OC
Exam item: Given 5 compounds, produce a descending ranking by Ki. # answer = labels listed in requested order
Marked response: R, S, Q, P, T

[P] CC[C@@H](NC(=O)[C@@H]1CCCCN1C(=O)[C@H](c1cc(OC)c(OC)c(OC)c1)C1CCCCC1)C(N)=O
[Q] COc1cc([C@@H](C(=O)N2CCCC[C@H]2C(=O)N[C@H](C(N)=O)C(C)C)C2CCCCC2)cc(OC)c1OC
Exam item: Lower value for measured Ki? Options: P , Q Response format: the label of the selected entry.
Marked response: P
(P: 4.5 µM, Q: 12.6 µM)

[a] COc1cc([C@@H](C(=O)N2CCCC[C@H]2C(=O)N[C@@H](Cc2cnc[nH]2)C(N)=O)C2CCCCC2)cc(OC)c1OC
[b] CC[C@H](NC(=O)[C@@H]1CCCCN1C(=O)[C@H](c1cc(OC)c(OC)c(OC)c1)C1CCCCC1)C(N)=O
Exam item: Param pair: a , b . Output: the one whose Ki is numerically greater. Response format: the label of the selected entry.
Marked response: a
(a: 13.4 µM, b: 3.6 µM)

###

experimentalSystem: Peptidyl-prolyl cis-trans isomerase FKBP5 (Homo sapiens)
testSummary: Binding affinity to FKBP51 FK506-binding domain (1 to 140 amino acids) (unknown origin) incubated for 30 mins using fluorescein-conjugated 2-(5-((2-(3-((R)-3-(3,4-dimethoxyphenyl)-1-((S)-1-(3,3-dimethyl-2-oxopentanoyl)piperidine-2-carbonyloxy)propyl)phenoxy)acetamido)methyl)-6-hydroxy-3-oxo-3H-xanthen-9-yl)benzoic acid by competitive fluorescence polarization assay
endpointLabel: Ki (µM)

COc1cc([C@@H](C(=O)N2CCCC[C@H]2C(=O)N[C@@H](CC(C)C)C(N)=O)C2CCCCC2)cc(OC)c1OC : 8.7

[1] COc1cc([C@@H](C(=O)N2CCCC[C@H]2C(=O)NC2(C(N)=O)CCCC2)C2CCCCC2)cc(OC)c1OC
[2] COc1cc([C@@H](C(=O)N2CCCC[C@H]2C(=O)N[C@@H](CCC2CCCCC2)C(N)=O)C2CCCCC2)cc(OC)c1OC
[3] COc1cc([C@@H](C(=O)N2CCCC[C@H]2C(=O)N[C@H](Cc2cnc[nH]2)C(N)=O)C2CCCCC2)cc(OC)c1OC
Exam item: Given 3 compounds, produce a descending ranking by Ki. # answer = labels listed in requested order
Marked response: 2, 3, 1

###

Quick record of pKi values for Peptidyl-prolyl cis-trans isomerase FKBP1A (Homo sapiens, UniProt P62942).
pKi: −log10 of the molar value.
endpointLabel: pKi

In the examples that follow, each entry is paired with its recorded pKi.
COc1cc([C@@H](C(=O)N2CCCC[C@H]2C(=O)N[C@@H](CCO)C(N)=O)C2CCCCC2)cc(OC)c1OC : 3.50
COc1cc([C@@H](C(=O)N2CCCC[C@H]2C(=O)N[C@H](C(N)=O)C(C)C)C2CCCCC2)cc(OC)c1OC : 4.94
CC[C@@H](C)[C@@H](NC(=O)[C@@H]1CCCCN1C(=O)[C@H](c1cc(OC)c(OC)c(OC)c1)C1CCCCC1)C(N)=O : 5.06
COc1cc([C@@H](C(=O)N2CCCC[C@H]2C(=O)N[C@H](CCO)C(N)=O)C2CCCCC2)cc(OC)c1OC : 5.92

[a] CC[C@H](C)[C@H](NC(=O)[C@@H]1CCCCN1C(=O)[C@H](c1cc(OC)c(OC)c(OC)c1)C1CCCCC1)C(N)=O
[b] COc1cc([C@@H](C(=O)N2CCCC[C@H]2C(=O)N[C@H](CCC(N)=O)C(N)=O)C2CCCCC2)cc(OC)c1OC
[c] COc1cc([C@@H](C(=O)N2CCCC[C@H]2C(=O)NC2(C(=O)NCC(N)=O)CCCC2)C2CCCCC2)cc(OC)c1OC
Exam item: Given 3 compounds, produce a descending ranking by pKi. # answer = labels listed in requested order
Marked response: c, a, b
(c: 5.70, a: 4.92, b: 3.92)

###

experimentalSystem: Peptidyl-prolyl cis-trans isomerase FKBP1A (Homo sapiens)
Sequence (P62942 whole entry): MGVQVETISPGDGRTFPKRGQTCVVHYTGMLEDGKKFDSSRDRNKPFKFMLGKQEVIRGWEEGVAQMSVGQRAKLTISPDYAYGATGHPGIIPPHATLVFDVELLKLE
pKi: −log10 of the molar value.
endpointLabel: pKi

COc1cc([C@@H](C(=O)N2CCCC[C@H]2C(=O)N[C@@H](C(N)=O)c2ccccc2)C2CCCCC2)cc(OC)c1OC : 4.91

[A] COc1cc([C@@H](C(=O)N2CCCC[C@H]2C(=O)N[C@@H](CC2CCCCC2)C(N)=O)C2CCCCC2)cc(OC)c1OC
[B] COc1cc([C@@H](C(=O)N2CCCC[C@H]2C(=O)N[C@H](CO)C(N)=O)C2CCCCC2)cc(OC)c1OC
Exam item: Param pair: A , B . Output: the one whose pKi is numerically greater. Response format: the label of the selected entry.
Marked response: A

###

experimentalSystem: Peptidyl-prolyl cis-trans isomerase FKBP5 (Homo sapiens, UniProt Q13451)
Sequence (Q13451 whole entry, the tested form may be a part): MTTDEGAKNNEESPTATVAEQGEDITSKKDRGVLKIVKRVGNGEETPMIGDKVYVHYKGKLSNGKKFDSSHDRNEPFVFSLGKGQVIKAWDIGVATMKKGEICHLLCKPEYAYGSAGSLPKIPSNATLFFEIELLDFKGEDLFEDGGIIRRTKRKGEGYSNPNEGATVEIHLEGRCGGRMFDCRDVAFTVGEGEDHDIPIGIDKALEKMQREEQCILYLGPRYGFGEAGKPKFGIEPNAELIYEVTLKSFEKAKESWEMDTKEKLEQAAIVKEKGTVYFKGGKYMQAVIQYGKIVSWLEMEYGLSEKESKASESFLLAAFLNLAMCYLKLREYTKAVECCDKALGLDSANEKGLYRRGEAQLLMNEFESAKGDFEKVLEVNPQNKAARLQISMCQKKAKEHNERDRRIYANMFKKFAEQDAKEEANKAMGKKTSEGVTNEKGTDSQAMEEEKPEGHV
testSummary: Binding affinity to FKBP51 FK506-binding domain (1 to 140 amino acids) (unknown origin) incubated for 30 mins using fluorescein-conjugated 2-(5-((2-(3-((R)-3-(3,4-dimethoxyphenyl)-1-((S)-1-(3,3-dimethyl-2-oxopentanoyl)piperidine-2-carbonyloxy)propyl)phenoxy)acetamido)methyl)-6-hydroxy-3-oxo-3H-xanthen-9-yl)benzoic acid by competitive fluorescence polarization assay
pKi: −log10 of the molar value.
endpointLabel: pKi

In the examples that follow, each entry is paired with its recorded pKi.
COc1cc([C@@H](C(=O)N2CCCC[C@H]2C(=O)NCCC(N)=O)C2CCCCC2)cc(OC)c1OC : 5.25
COc1cc([C@@H](C(=O)N2CCCC[C@H]2C(=O)NCCCC(N)=O)C2CCCCC2)cc(OC)c1OC : 5.24
COc1cc([C@@H](C(=O)N2CCCC[C@H]2C(=O)N[C@@H](CO)C(N)=O)C2CCCCC2)cc(OC)c1OC : 4.20
COc1cc([C@@H](C(=O)N2CCCC[C@H]2C(=O)NCCCCC(N)=O)C2CCCCC2)cc(OC)c1OC : 5.41
COc1cc([C@@H](C(=O)N2CCCC[C@H]2C(=O)N[C@@H](C)C(N)=O)C2CCCCC2)cc(OC)c1OC : 4.77

[P] COc1cc([C@@H](C(=O)N2CCCC[C@H]2C(=O)NC(C)(C)CC(N)=O)C2CCCCC2)cc(OC)c1OC
[Q] CC[C@H](C)[C@H](NC(=O)[C@@H]1CCCCN1C(=O)[C@H](c1cc(OC)c(OC)c(OC)c1)C1CCCCC1)C(N)=O
Exam item: Param pair: P , Q . Output: the one whose pKi is numerically greater. Response format: the label of the selected entry.
Marked response: P
(P: 5.42, Q: 5.15)

[P] COc1cc([C@@H](C(=O)N2CCCC[C@H]2C(=O)NC2(C(N)=O)CC2)C2CCCCC2)cc(OC)c1OC
[Q] COc1ccc(CC[C@@H](NC(=O)[C@@H]2CCCCN2C(=O)[C@H](c2cc(OC)c(OC)c(OC)c2)C2CCCCC2)c2cccc(OCC(=O)O)c2)cc1OC
Exam item: Param pair: P , Q . Output: the one whose pKi is numerically greater. Response format: the label of the selected entry.
Marked response: Q
(Q: 7.37, P: 4.71)

[1] COc1cc([C@@H](C(=O)N2CCCC[C@H]2C(=O)NC2(C(N)=O)CCC2)C2CCCCC2)cc(OC)c1OC
[2] COc1cc([C@@H](C(=O)N2CCCC[C@H]2C(=O)N[C@H](CO)C(N)=O)C2CCCCC2)cc(OC)c1OC
[3] COc1cc([C@@H](C(=O)N2CCCC[C@H]2C(=O)N[C@@H](CC2CCCCC2)C(N)=O)C2CCCCC2)cc(OC)c1OC
Exam item: Sort ascending by pKi. # answer = labels listed in requested order
Marked response: 3, 1, 2
